Below, each entry is listed alongside its reported cell viability.
# System: U2OS
# measurement-description: cell viability relative to DMSO; higher = less toxic
# condition-context: 72 h; 10000 nM
Supply the numeric figure in %, leaving out any unit text.

Field: example entries. Status: answers known.
compound	cell viability / %
Nc1ncnc2c1c(-c1cnc3[nH]ccc3c1)nn2C1CCCC1	1.6
O=C(c1cn(Cc2cncn2Cc2ccc(Br)cc2)cc1-c1cccc2ccccc12)N1CCOCC1	39.9
CN1C(=O)N(c2cc(Cl)cc(Cl)c2)C(=O)[C@@]1(C)Cc1ccc(Br)cc1	88.8
O=C(CSc1nc2c(c(=O)n1-c1ccccc1)SCC2)Nc1ccc(-c2ccccc2)cn1	94.9
Nc1ccc2ncnc(NCCc3ccc(Oc4ccccc4)cc3)c2c1	64.5
COCC1=C(C(=O)O)N2C(=O)[C@@H](NC(=O)/C(=N\OC)c3csc(N)n3)[C@H]2SC1	101
CC(C)NCC(O)COc1cccc2[nH]c3ccccc3c12 (centres undefined)	99.7
Cc1csc(NC(=O)CSc2ccc(-c3ccccc3)nn2)n1	104

[Q] Fill in: cell viability of "N[C@@H]1c2cccnc2[C@H](OC(=O)N2CCC(n3c(=O)[nH]c4ncccc43)CC2)CC[C@H]1c1cccc(F)c1F" is ___
[A] 100

----------
# System: Caco-2
# measurement-description: cell viability relative to DMSO; higher = less toxic
# condition-context: 72 h; 100 nM
endpoint-label: cell viability (%)
Supply the numeric figure in %, leaving out any unit text.

Field: example entries. Status: answers known.
smiles-text	cell viability (%)
COCC1=C(C(=O)O)N2C(=O)[C@@H](NC(=O)/C(=N\OC)c3csc(N)n3)[C@H]2SC1	97.5
CCc1[nH]c(=O)[nH]c1C(=O)c1ccncc1	88.7
COc1cc2c(NC3CCN(C)CC3)nc(N3CCCN(C)CC3)nc2cc1OCCOCCN(C)C	102
O=C1C=C2C=C[C@@H]3C[C@@]2(O1)[C@H]1CCCCN31	104

# evaluate next
[Q] Fill in: cell viability of "Cc1c(NC(=O)N2CCOCC2)ccc2c1c1ccccc1n2C(C)C" is ___
[A] 98.7

----------
# Tested on: Calu-3
# measurement-description: cell viability relative to DMSO; higher = less toxic
# condition-context: 72 h; 1 nM
endpoint-label: cell viability

compound	measured-target	endpoint-label	recorded-result
COC[C@H](NC(=O)c1cnc(C)s1)C(=O)N[C@@H](COC)C(=O)N[C@@H](Cc1ccccc1)C(=O)[C@@]1(C)CO1	Calu-3	cell viability	92.4%
O=C(O)CCCc1ccccc1 [phenylbutyrate]	Calu-3	cell viability	94.6%
COc1cc(OC)c(NC(=O)Nc2cc(C)on2)cc1Cl	Calu-3	cell viability	86.7%
O=S(=O)(O)Oc1ccc(C(c2ccc(OS(=O)(=O)O)cc2)c2ccccn2)cc1 [sodium-picosulfate]	Calu-3	cell viability	87.6%
N[C@@H](Cc1cc(I)c(Oc2ccc(O)c(I)c2)c(I)c1)C(=O)O	Calu-3	cell viability	98.9%
FC(F)(F)c1cc(NC(=S)Nc2ccc(Br)cc2-c2nnn[nH]2)cc(C(F)(F)F)c1	Calu-3	cell viability	98.8%

[Q] Fill in: cell viability of CCN(CC)CCNC(=O)COc1ccc(OC)cc1 [mefexamide] is ___
[A] 108%

[Q] Next compound up: "CC(C)c1cc(-c2ccc(F)c3ccccc23)nc(N)n1"
[A] 80.3%

[Q] Next compound up: "O=C1[C@@H]2[C@H]3CC[C@H](C3)[C@@H]2C(=O)N1CCCCN1CCN(c2ncccn2)CC1"
[A] 113%

[Q] Next compound up: "CCCCc1nc(-c2ccc(OCCCN(CC)CC)cc2)cn1-c1ccc(Oc2ccc(Cl)cc2)cc1"
[A] 109%

[Q] Next compound up: NC(=O)CN1CC(c2ccccc2)CC1=O (stereo unspecified)
[A] 103%

[Q] Next compound up: "CCCCCCCCCCCCCCCC[N+](C)(C)CCN(Cc1ccc(OC)cc1)c1ncccn1"
[A] 102%

[Q] Next compound up: "CO[C@H]1/C=C/O[C@@]2(C)Oc3c(C)c(O)c4c(O)c(c(/C=N/N5CCN(C6CCCC6)CC5)c(O)c4c3C2=O)NC(=O)/C(C)=C\C=C\[C@H](C)[C@H](O)[C@@H](C)[C@@H](O)[C@@H](C)[C@H](OC(C)=O)[C@@H]1C"
[A] 101%

[Q] Next compound up: "CC(C)=CCC/C(C)=C/CC/C(C)=C/CSc1ccccc1C(=O)O"
[A] 104%

[Q] Next compound up: "COc1cccc2c1C(=O)c1c(O)c3c(c(O)c1C2=O)C[C@@](O)(C(=O)CO)C[C@@H]3O[C@H]1C[C@H](N)[C@H](O[C@@H]2CCCCO2)[C@H](C)O1"
[A] 103%

[Q] Next compound up: "CC(C)N1CCN(c2ccc(C(=O)c3c(-c4ccc(O)cc4)sc4cc(O)ccc34)cc2)CC1"
[A] 96%

----------
# Tested on: Calu-3
# measurement-description: cell viability relative to DMSO; higher = less toxic
# condition-context: 72 h; 1000 nM
Where a name gives a salt, the structure may show the parent alone.
Below, each entry is listed alongside its reported cell viability.
Supply the numeric figure in %, leaving out any unit text.

compound	endpoint-label	unit-abbreviation	recorded-result
CN(C)CCOC(c1ccccc1)c1ccccc1.Cn1c(=O)c2[nH]c(Cl)nc2n(C)c1=O [dimenhydrinate]	cell viability	%	99.2
CC(C)=CCC/C(C)=C/CC/C(C)=C/CSc1ccccc1C(=O)O	cell viability	%	103
O=C(O)CCCN1CCC(O[C@@H](c2ccc(Cl)cc2)c2ccccn2)CC1	cell viability	%	93.8

[Q] Fill in: cell viability of "CC(C)(CCCCCC(O)CCCCCC(C)(C)C(=O)O)C(=O)O" is ___
[A] 92.1

[Q] Next compound up: CC[C@H]1OC(=O)C[C@@H](O)[C@H](C)[C@@H](O[C@@H]2O[C@H](C)[C@@H](O[C@H]3C[C@@](C)(O)[C@@H](O)[C@H](C)O3)[C@H](N(C)C)[C@H]2O)[C@@H](CC=O)C[C@@H](C)C(=O)/C=C/C(C)=C/[C@@H]1CO[C@@H]1O[C@H](C)[C@@H](O)[C@@H](OC)[C@H]1OC [TYLOSIN TARTRATE]
[A] 91

[Q] Next compound up: N[C@H]1C(O)O[C@H](CO)[C@@H](O)[C@@H]1O (mixture of isomers)
[A] 101

----------
Below, each entry is listed alongside its reported drug sensitivity score.
# Test system: U2OS
# measurement-description: drug sensitivity score (DSS) for viability; higher = more toxic; extreme values may be limits of the assay
# condition-context: 72 h
Output: the number by itself.

compound	endpoint-label	recorded-result
Cc1c(NC(=O)N2CCOCC2)ccc2c1c1ccccc1n2C(C)C	drug sensitivity score	0
Sc1ncnc2nc[nH]c12	drug sensitivity score	5.6
Cc1csc(NC(=O)CSc2ccc(-c3ccccc3)nn2)n1	drug sensitivity score	0
CC(C)(O)[C@@H]1[C@H]2OC(=O)[C@@H]1[C@]1(O)C[C@H]3O[C@]34C(=O)O[C@H]2[C@]14C	drug sensitivity score	0
O=C(O)CCCc1ccccc1 [phenylbutyrate]	drug sensitivity score	0

[Q] Fill in: drug sensitivity score of "CN1CCN(c2ccc(/C=C(\C#N)c3ccccc3Br)cc2)CC1" is ___
[A] 0

[Q] Next compound up: "N=C(N)NCCC[C@H](NC(=O)c1sccc1NS(=O)(=O)c1cccc2nsnc12)C(=O)O"
[A] 0

[Q] Next compound up: "O=C(/C=C/c1ccc(O)c(O)c1)O[C@H](Cc1ccc(O)c(O)c1)C(=O)O"
[A] 0

[Q] Next compound up: "N[C@@H](C(=O)O)c1cc(O)ccc1Cl"
[A] 0

[Q] Next compound up: "COc1cc(C(=O)NCCCCCC(=O)O)cc(OC)c1OC"
[A] 0

----------
Below, each entry is listed alongside its reported drug-induced phospholipidosis.
# System: A549-ACE2
# measurement-description: drug-induced phospholipidosis relative to tamoxifen; higher = more phospholipidosis
# condition-context: 3.33333 µM; 48 h
Supply the numeric figure in %, leaving out any unit text.

[Q] Fill in: drug-induced phospholipidosis of "CC(=O)O[C@@H]1C[C@H]2C(C)(C)C(=O)C=C[C@]2(C)[C@H]2CC[C@@]3(C)[C@H](c4ccoc4)OC(=O)[C@H]4O[C@]43[C@@]21C" is ___
[A] 10.1

----------
# Test system: HepG2
# measurement-description: cell viability relative to DMSO; higher = less toxic
# condition-context: 72 h; 1000 nM
endpoint-label: cell viability (%)
Supply the numeric figure in %, leaving out any unit text.

compound	measured-target	unit-abbreviation	recorded-result
C=C(C)[C@@H]1CCC(C)=C[C@H]1c1c(OC)cc(C)cc1OC	HepG2	%	95.3

[Q] Fill in: cell viability of CC1Nc2ccc(Cl)cc2S(=O)(=O)N1 (stereo unspecified) is ___
[A] 98.9

[Q] Next compound up: "NNCCc1ccccc1"
[A] 120

[Q] Next compound up: "COc1cc2c(NC3CCN(C)CC3)nc(N3CCCN(C)CC3)nc2cc1OCCOCCN(C)C"
[A] 102

[Q] Next compound up: O=P(O)(O)C(O)(Cc1cccnc1)P(=O)(O)O [risedronate]
[A] 93.2

[Q] Next compound up: "CCCN1CCCC[C@H]1C(=O)Nc1c(C)cccc1C"
[A] 95.6
